Target: human Cereblon WT GST-tagged protein (Homo sapiens)
Construct: purchased CISBIO 64BDCRBNPEH
Assay: CRBN-binding affinity, HTRF (CEREBLON BINDING kit)
Conditions: read-out: Inhibition Rate at 2 µM (%)
Text: The CEREBLON BINDING kits (specification: 10,000 tests; product number: Catalog # 64BDCRBNPEH; CISBIO company) was used to determine the CRBN binding ability of the compounds to be tested through a HTRF method (homogeneous time-resolved fluorescence). The specific methods are as follows: • 1. […] Specifically, diluent #9 (1X) solution was used as the diluent, and multiple concentration gradients were set. […]
MEASURED ATTRIBUTE: inhibition at 2 µM

In the examples that follow, each entry is paired with its recorded inhibition at 2 µM.
COC1CCN(c2nccc(Nc3cc4c(cn3)c(N3CCN(Cc5cccc6c5CN(C5CCC(=O)NC5=O)C6=S)CC3)nn4C(C)C)n2)CC1 (stereo not drawn)
60 to 80%
COc1cc(N2CCC(N(C)Cc3ccc4c(c3)C(=S)N(C3CCC(=O)NC3=O)C4)CC2)c(C)cc1Nc1ncc(Br)c(Nc2ccc3nccnc3c2P(C)(C)=O)n1 (stereo not drawn)
80 to 100%
Cc1cc(Nc2ncc(Cl)c(Nc3ccccc3S(=O)(=O)C(C)C)n2)c(OC(C)C)cc1C1CCN(Cc2ccc3c(c2)CN(C2CCC(=O)NC2=O)C3=S)CC1 (stereo not drawn)
53 to 60%
Cn1ncc(Cl)c1-c1cc(C(=O)N[C@@H](Cc2ccc(F)c(F)c2)CN2CCN(Cc3ccc4c(c3)CN(C3CCC(=O)NC3=O)C4=S)CC2)oc1Cl (stereo partly drawn)
80 to 100%

Data request: Need inhibition at 2 µM of Cn1ncc(Cl)c1-c1cc(C(=O)N[C@H](CNCc2ccc3c(c2)CN(C2CCC(=O)NC2=O)C3=S)Cc2ccc(F)c(F)c2)oc1Cl (stereo partly drawn) , thanks.
Data returned: 60 to 80%

Data request: Need inhibition at 2 µM of Cn1c2ccncc2c2ccc(-c3ccc(N4CCN(Cc5ccc6c(c5)CN(C5CCC(=O)NC5=O)C6=S)CC4)nc3)cc21 (stereo not drawn) , thanks.
Data returned: 80 to 100%

###

Test system: MV-4-11
Assay: Tumor cell proliferation inhibition (CellTiter-Meiluncell Luminescent Cell Viability Assay)
Format: cell-based
Details: Homo sapiens, MV4-11, 500 nM, 96 hours, Table I-3, EGFR inhibitors, read-out: Inhibition Rate at 500 nM (%)
# maps each entry to its inhibition at 0.5 µM

COc1cc(N2CCC(N(C)Cc3ccc4c(c3)CN(C3CCC(=O)NC3=O)C4=S)CC2)c(C)cc1Nc1ncc(Br)c(Nc2ccc3nccnc3c2P(C)(C)=O)n1 (centres unmarked) [GT-08754]
70 to 80%
C#Cc1cccc(Nc2ncnc3cc(OCCOC)c(OCCOC)cc23)c1 [erlotinib, Erlotinib, reference compound]
10 to 20%
COc1cc(N2CCC(N(C)Cc3ccc4c(c3)C(=S)N(C3CCC(=O)NC3=O)C4)CC2)c(C)cc1Nc1ncc(Br)c(Nc2ccc3nccnc3c2P(C)(C)=O)n1 (centres unmarked) [GT-08761]
60 to 70%
COC1CCN(c2nccc(Nc3cc4c(cn3)c(N3CCN(Cc5ccc6c(c5)CN(C5CCC(=O)NC5=O)C6=S)CC3)nn4C(C)C)n2)CC1 (centres unmarked) [GT-08756]
40 to 50%
COC1CCN(c2nccc(Nc3cc4c(cn3)c(N3CCN(Cc5ccc6c(c5)C(=S)N(C5CCC(=O)NC5=O)C6)CC3)nn4C(C)C)n2)CC1 (centres unmarked) [GT-08763]
50 to 60%

Data request: Need inhibition at 0.5 µM of COc1cc(N2CCC(N3CCN(Cc4ccc5c(c4)CN(C4CCC(=O)NC4=O)C5=S)CC3)CC2)c(C)cc1Nc1ncc(Br)c(Nc2ccc3nccnc3c2P(C)(C)=O)n1 (centres unmarked) [GT-08755] , thanks.
Data returned: 70 to 80%

Data request: Need inhibition at 0.5 µM of COc1cc(N2CCC(N3CCN(Cc4ccc5c(c4)C(=S)N(C4CCC(=O)NC4=O)C5)CC3)CC2)c(C)cc1Nc1ncc(Br)c(Nc2ccc3nccnc3c2P(C)(C)=O)n1 (centres unmarked) [GT-08762] , thanks.
Data returned: 80 to 100%

Data request: Need inhibition at 0.5 µM of COc1cc(N2CCC(N(C)Cc3cccc4c3CN(C3CCC(=O)NC3=O)C4=S)CC2)c(C)cc1Nc1ncc(Br)c(Nc2ccc3nccnc3c2P(C)(C)=O)n1 (centres unmarked) [GT-08758] , thanks.
Data returned: 60 to 70%

###

Molecular target: human Cereblon WT GST-tagged protein (Homo sapiens, UniProt Q96SW2)
Construct: purchased CISBIO 64BDCRBNPEH
Sequence (Q96SW2 whole entry): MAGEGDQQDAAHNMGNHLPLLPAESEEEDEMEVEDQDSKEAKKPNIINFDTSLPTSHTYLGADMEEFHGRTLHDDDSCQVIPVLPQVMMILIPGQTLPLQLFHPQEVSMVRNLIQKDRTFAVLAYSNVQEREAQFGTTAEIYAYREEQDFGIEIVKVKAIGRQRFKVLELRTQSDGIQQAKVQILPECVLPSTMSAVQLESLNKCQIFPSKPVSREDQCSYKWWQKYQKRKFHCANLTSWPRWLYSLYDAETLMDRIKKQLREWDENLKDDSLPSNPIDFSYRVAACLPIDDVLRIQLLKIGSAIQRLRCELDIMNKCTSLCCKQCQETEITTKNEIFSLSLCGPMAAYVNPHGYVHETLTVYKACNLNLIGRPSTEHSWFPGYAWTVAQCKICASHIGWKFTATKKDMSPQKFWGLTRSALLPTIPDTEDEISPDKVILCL
Experiment: CRBN-binding affinity, HTRF (CEREBLON BINDING kit)
Conditions: read-out: Inhibition Rate at 2 µM (%)
# maps each entry to its inhibition at 2 µM

Nc1nnc(-c2cc(F)ccc2O)cc1N1CC2CCC(C1)N2Cc1cccc2c1CN(C1CCC(=O)NC1=O)C2=S (stereo not drawn)
80 to 100%

For the next question, use this compound.
Data request: Need inhibition at 2 µM of COc1cc(N2CCC(N3CCN(Cc4cccc5c4CN(C4CCC(=O)NC4=O)C5=S)CC3)CC2)c(C)cc1Nc1ncc(Br)c(Nc2ccc3nccnc3c2P(C)(C)=O)n1 (stereo not drawn) , thanks.
Data returned: 80 to 100%

###

# maps each entry to its inhibition at 2 µM
Target: human Cereblon WT GST-tagged protein (Homo sapiens)
Construct: purchased CISBIO 64BDCRBNPEH
Test: CRBN-binding affinity, HTRF (CEREBLON BINDING kit)
Conditions: read-out: Inhibition Rate at 2 µM (%)

COc1cc2nn(C3CCN(Cc4ccc5c(c4)CN(C4CCC(=O)NC4=O)C5=S)CC3)cc2cc1NC(=O)c1cccc(C(F)(F)F)c1 (stereo not drawn)
80 to 100%
CC1(C)CCC(c2ccc(Cl)cc2)=C(CN2CCN(c3ccc(C(=O)NS(=O)(=O)c4ccc(N[C@H](CCN5CC6CCC(C5)N6Cc5ccc6c(c5)CN(C5CCC(=O)NC5=O)C6=S)CSc5ccccc5)c(S(=O)(=O)C(F)(F)F)c4)cc3)CC2)C1 (stereo partly drawn)
80 to 100%
CS(=O)(=O)c1cccc(CNc2nc(Nc3ccc(N4CCN(Cc5cccc6c5CN(C5CCC(=O)NC5=O)C6=S)CC4)cc3)ncc2C(F)(F)F)c1 (stereo not drawn)
80 to 100%
Nc1nnc(-c2cc(F)ccc2O)cc1N1CCN(Cc2ccc3c(c2)C(=S)N(C2CCC(=O)NC2=O)C3)CC1 (stereo not drawn)
80 to 100%
CC(C)Nc1cc(-n2ccc3cc(C#N)cnc32)ncc1C(=O)NC1CCN(Cc2ccc3c(c2)CN(C2CCC(=O)NC2=O)C3=S)CC1 (stereo not drawn)
80 to 100%
CC(=O)c1c(C)c2cnc(Nc3ccc(N4CCN(Cc5ccc6c(c5)CN(C5CCC(=O)NC5=O)C6=S)CC4)cn3)nc2n(C2CCCC2)c1=O (stereo not drawn)
80 to 100%
O=C1CCC(N2Cc3ccc(CN4CCN(c5ccc(CC(=O)Nc6cc(C7CCC7)[nH]n6)cc5)CC4)cc3C2=S)C(=O)N1 (stereo not drawn)
80 to 100%
CN(c1nccnc1CNc1nc(Nc2ccc(N3CCN(Cc4ccc5c(c4)CN(C4CCC(=O)NC4=O)C5=S)CC3)cc2)ncc1C(F)(F)F)S(C)(=O)=O (stereo not drawn)
80 to 100%
CN(C)C(=O)c1cc2cnc(Nc3ccc(N4CCN(Cc5ccc6c(c5)CN(C5CCC(=O)NC5=O)C6=S)CC4)cn3)nc2n1C1CCCC1 (stereo not drawn)
80 to 100%
CC(C)(C)c1cnc(CSc2cnc(NC(=O)C3CCN(Cc4ccc5c(c4)CN(C4CCC(=O)NC4=O)C5=S)CC3)s2)o1 (stereo not drawn)
80 to 100%

Data request: Need inhibition at 2 µM of O=C1CCC(N2Cc3cc(CN4C[C@H]5C[C@@H]4CN5c4ccc(-c5cc(F)c6c(c5)C(=O)N(C(C(=O)Nc5nccs5)c5ncn7c5CCC7)C6)cc4)ccc3C2=S)C(=O)N1 (stereo partly drawn) , thanks.
Data returned: 60 to 80%

Data request: Need inhibition at 2 µM of Cc1ccsc1C(=O)n1nc(Nc2ccc(S(=O)(=O)N3CCN(Cc4ccc5c(c4)CN(C4CCC(=O)NC4=O)C5=S)CC3)cc2)nc1N (stereo not drawn) , thanks.
Data returned: 60 to 80%

###

# maps each entry to its inhibition at 2 µM
Molecular target: human Cereblon WT GST-tagged protein (Homo sapiens, UniProt Q96SW2)
Construct: purchased CISBIO 64BDCRBNPEH
Experiment: CRBN-binding affinity, HTRF (CEREBLON BINDING kit)
Details: read-out: Inhibition Rate at 2 µM (%)

Nc1ncnc2c1c(-c1ccc(Oc3ccccc3)cc1)nn2C1CCN(Cc2cccc3c2CN(C2CCC(=O)NC2=O)C3=S)CC1 (stereo not shown)
60 to 80%
CCN(c1cc(-c2ccc(CN3CCN(Cc4ccc5c(c4)CN(C4CCC(=O)NC4=O)C5=S)CC3)cc2)cc(C(=O)NCc2c(C)cc(C)[nH]c2=O)c1C)C1CCOCC1 (stereo not shown)
80 to 100%
C[C@@H]1CNC(=O)c2cc3ccc(C(=O)Nc4cnn(Cc5ccc(N6CCC(N7CCN(Cc8ccc9c(c8)CN(C8CCC(=O)NC8=O)C9=S)CC7)CC6)cc5)c4)nc3n21 (stereo partly shown)
80 to 100%

For the next question, use this molecule.
Data request: Need inhibition at 2 µM of Nc1nnc(-c2ccccc2O)cc1N1CCN(Cc2ccc3c(c2)CN(C2CCC(=O)NC2=O)C3=S)CC1 (stereo not shown) , thanks.
Data returned: 80 to 100%

The measurements presented in this section are drawn from patent EP4745138A1.
